Attribution: ChEMBL document CHEMBL4138153

Species on record: Rattus norvegicus
Experiment: Selectivity index, ratio of IC50 for MAO-A in rat liver mitochondria to IC50 for MAO-B in rat liver mitochondria

>  <smilesEntry>
O=C(NN=C1CCCC1)C1=C(O)c2ccccc2S(=O)(=O)N1

>  <Ratio IC50>
> 109

$$$$
>  <smilesEntry>
COC(=O)C1=C(O)c2ccccc2S(=O)(=O)N1Cc1ccccc1

>  <Ratio IC50>
32.8

$$$$
>  <smilesEntry>
CC(C)c1ccc(/C=N/NC(=O)C2=C(O)c3ccccc3S(=O)(=O)N2)cc1

>  <Ratio IC50>
> 2.62

$$$$
>  <smilesEntry>
O=C(N/N=C/c1ccccc1)C1=C(O)c2ccccc2S(=O)(=O)N1Cc1ccccc1

>  <Ratio IC50>
> 10.5

$$$$
>  <smilesEntry>
C/C(=N\NC(=O)C1=C(O)c2ccccc2S(=O)(=O)N1Cc1ccccc1)c1ccc(F)cc1

>  <Ratio IC50>
> 16.5

$$$$
>  <smilesEntry>
O=C(N/N=C/c1ccc(Cl)cc1)C1=C(O)c2ccccc2S(=O)(=O)N1Cc1ccccc1

>  <Ratio IC50>
> 48.1

$$$$
